List of residual activity values.
# target or test system: PIM2 (human) (UniProt Q9P1W9)
# Sequence (Q9P1W9 whole entry, looked up): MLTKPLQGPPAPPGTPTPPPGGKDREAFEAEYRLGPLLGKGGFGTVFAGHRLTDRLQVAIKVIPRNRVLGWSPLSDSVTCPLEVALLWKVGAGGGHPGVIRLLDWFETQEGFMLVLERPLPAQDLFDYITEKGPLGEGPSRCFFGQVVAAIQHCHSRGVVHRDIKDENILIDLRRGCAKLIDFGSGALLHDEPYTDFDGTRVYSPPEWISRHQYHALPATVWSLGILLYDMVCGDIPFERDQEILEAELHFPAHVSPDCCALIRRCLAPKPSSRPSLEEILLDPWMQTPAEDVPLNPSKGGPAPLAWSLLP
# procedure details: radiometric filter-binding kinase assay
# setup conditions: compound 10.0 µM
Give the value, in units of %, as a plain number.

Below, each entry is followed by its recorded residual activity result.
compound: CC(C)(C#N)c1ccc(N2C(=O)OCc3cnc4ccc(-c5cnc6ccccc6c5)cc4c32)cc1
value measured: 96
//
compound: COc1cc(C(=O)N2CCOCC2)c(F)cc1Nc1ncc(C(F)(F)F)c(NC2CC2)n1
value measured: 107
//
compound: Cn1nc(Nc2ccc(F)cc2)c2c(N)ncnc21
value measured: 109

Switching to the query record.
Give the measured residual activity of NS(=O)(=O)OC[C@@H]1C[C@@H](n2ccc3c(N[C@H]4CCc5ccccc54)ncnc32)C[C@@H]1O .
101

* * *

# System: RPS6KB1 (human), P23443 [T412E]
# Sequence (P23443 whole entry T412E, looked up): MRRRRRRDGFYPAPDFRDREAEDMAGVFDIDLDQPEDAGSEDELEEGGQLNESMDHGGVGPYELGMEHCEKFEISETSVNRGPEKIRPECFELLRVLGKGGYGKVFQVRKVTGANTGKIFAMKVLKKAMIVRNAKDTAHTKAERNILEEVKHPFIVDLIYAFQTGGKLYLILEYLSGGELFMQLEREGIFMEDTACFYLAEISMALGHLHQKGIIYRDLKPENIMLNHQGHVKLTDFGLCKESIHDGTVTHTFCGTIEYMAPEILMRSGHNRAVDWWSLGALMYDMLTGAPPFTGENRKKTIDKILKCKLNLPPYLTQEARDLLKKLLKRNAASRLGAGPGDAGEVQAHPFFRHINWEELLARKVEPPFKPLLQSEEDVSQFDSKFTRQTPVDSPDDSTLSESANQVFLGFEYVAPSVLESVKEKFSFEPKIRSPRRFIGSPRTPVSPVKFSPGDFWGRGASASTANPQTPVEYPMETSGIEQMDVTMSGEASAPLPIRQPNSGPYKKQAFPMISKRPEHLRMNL
# procedure details: radiometric filter-binding kinase assay
# setup conditions: compound 10.0 µM
measurement label: residual activity (%)
Give the value, in units of %, as a plain number.

Below, each entry is followed by its recorded residual activity result.
structure smiles string: Cc1ccc(-c2ccc3c(ccc4sc5c(c43)NC[C@@H](C)NC5=O)n2)cn1
residual activity (%): 80
--
structure smiles string: O=C1NC(=S)N[C@@H]1Cc1c[nH]c2ccccc12
residual activity (%): 100
--
structure smiles string: COC(=O)/C=C/C(=O)OC
residual activity (%): 99

Switching to the query record.
Give the measured residual activity of N#Cc1c(O)c2c(-c3ccc(-c4ccccc4O)cc3)csc2[nH]c1=O .
78

* * *

List of residual activity values.
# target or test system: MAP3K5 (human) (UniProt Q99683)
# Sequence (Q99683 whole entry, looked up): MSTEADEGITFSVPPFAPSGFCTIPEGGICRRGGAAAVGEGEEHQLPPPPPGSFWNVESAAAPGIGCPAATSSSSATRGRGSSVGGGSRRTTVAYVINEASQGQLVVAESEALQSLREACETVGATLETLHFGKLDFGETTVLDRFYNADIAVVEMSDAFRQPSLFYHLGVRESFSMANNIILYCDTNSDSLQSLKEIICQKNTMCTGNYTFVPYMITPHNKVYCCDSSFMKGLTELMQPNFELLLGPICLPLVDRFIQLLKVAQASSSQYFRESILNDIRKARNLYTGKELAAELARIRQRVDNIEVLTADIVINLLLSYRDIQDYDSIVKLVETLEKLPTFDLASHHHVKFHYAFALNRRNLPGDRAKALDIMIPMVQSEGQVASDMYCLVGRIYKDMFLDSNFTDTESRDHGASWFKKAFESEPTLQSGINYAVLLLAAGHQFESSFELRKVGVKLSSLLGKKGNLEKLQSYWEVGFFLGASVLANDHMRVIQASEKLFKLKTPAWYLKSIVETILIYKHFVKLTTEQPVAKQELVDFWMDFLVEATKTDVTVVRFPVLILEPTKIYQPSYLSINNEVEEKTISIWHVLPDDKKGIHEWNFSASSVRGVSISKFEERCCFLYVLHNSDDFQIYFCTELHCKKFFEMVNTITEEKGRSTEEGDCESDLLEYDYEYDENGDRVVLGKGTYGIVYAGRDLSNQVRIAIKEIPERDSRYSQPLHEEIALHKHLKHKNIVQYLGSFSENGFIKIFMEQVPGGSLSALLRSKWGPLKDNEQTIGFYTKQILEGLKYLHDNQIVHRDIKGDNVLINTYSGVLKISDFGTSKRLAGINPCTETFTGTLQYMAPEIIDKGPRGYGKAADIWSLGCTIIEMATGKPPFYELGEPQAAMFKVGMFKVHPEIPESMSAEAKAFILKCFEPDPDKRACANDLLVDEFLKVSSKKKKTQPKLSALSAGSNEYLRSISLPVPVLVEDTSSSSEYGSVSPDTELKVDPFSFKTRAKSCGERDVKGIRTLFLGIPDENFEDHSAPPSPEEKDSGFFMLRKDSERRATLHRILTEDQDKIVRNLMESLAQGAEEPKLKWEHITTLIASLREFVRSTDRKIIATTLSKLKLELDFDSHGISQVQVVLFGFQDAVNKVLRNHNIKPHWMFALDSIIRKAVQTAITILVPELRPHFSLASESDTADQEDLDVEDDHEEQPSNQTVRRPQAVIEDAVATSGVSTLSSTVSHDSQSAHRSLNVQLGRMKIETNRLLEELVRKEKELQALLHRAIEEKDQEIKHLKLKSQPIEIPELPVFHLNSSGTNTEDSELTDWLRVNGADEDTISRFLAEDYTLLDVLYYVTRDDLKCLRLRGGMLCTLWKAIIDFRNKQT
# procedure details: radiometric filter-binding kinase assay
# setup conditions: compound 0.1 µM
Give the value, in units of %, as a plain number.

Below, each entry is followed by its recorded residual activity result.
structure smiles string: C=CC(=O)N1CCC[C@@H](n2nc(-c3ccc(Oc4ccccc4)cc3)c3c(N)ncnc32)C1
target or test system: MAP3K5 (human) (UniProt Q99683)
quantity unit: %
residual activity: 103
//
structure smiles string: COc1ccc(N(C(=O)Nc2c(C)cccc2C)c2cc(Nc3ccc(N4CCN(C)CC4)cc3)ncn2)c(OC)c1
target or test system: MAP3K5 (human) (UniProt Q99683)
quantity unit: %
residual activity: 119
//
structure smiles string: NC(=O)c1cc(-c2ccnc(NC3CCCCC3)c2)nc(N2CCNCC2)c1
target or test system: MAP3K5 (human) (UniProt Q99683)
quantity unit: %
residual activity: 98
//
structure smiles string: CN1CCN(CCOc2cc(OC3CCOCC3)c3c(Nc4c(Cl)ccc5c4OCO5)ncnc3c2)CC1
target or test system: MAP3K5 (human) (UniProt Q99683)
quantity unit: %
residual activity: 100
//
structure smiles string: O=C(N[C@@H](COc1ccc2[nH]c(=O)[nH]c2c1)c1ccccc1)c1cccn(Cc2ccc(F)c(F)c2)c1=O
target or test system: MAP3K5 (human) (UniProt Q99683)
quantity unit: %
residual activity: 110

Give the measured residual activity of CCn1c(-c2nonc2N)nc2cncc(CNC3CCNCC3)c21 .
100

* * *

# Tested on: PRKAA1 or PRKAA2 (rat)
# procedure details: radiometric filter-binding kinase assay
# setup conditions: compound 1.0 µM; accession and sequence are those of the human protein
measurement label: residual activity (%)
Give the value, in units of %, as a plain number.

Below, each entry is followed by its recorded residual activity result.
compound: CC(C)(C#N)c1ccc(N2C(=O)OCc3cnc4ccc(-c5cnc6ccccc6c5)cc4c32)cc1
target or test system: PRKAA1 or PRKAA2 (rat)
residual activity (%): 91
//
compound: CCCC(CCC)C(=O)O
target or test system: PRKAA1 or PRKAA2 (rat)
residual activity (%): 98
//
compound: NC(=O)c1c(NC(=O)C2CC2)sc2c1CCCC2
target or test system: PRKAA1 or PRKAA2 (rat)
residual activity (%): 103
//
compound: NC1(c2ccc(-c3nc4ccn5c(=O)[nH]nc5c4cc3-c3ccccc3)cc2)CCC1
target or test system: PRKAA1 or PRKAA2 (rat)
residual activity (%): 85
//
compound: Cc1ccc(=O)n(-c2ccccc2)c1
target or test system: PRKAA1 or PRKAA2 (rat)
residual activity (%): 99

Give the measured residual activity of C[C@H]1CCCC(=O)CCC/C=C/c2cc(O)cc(O)c2C(=O)O1 .
94

Give the measured residual activity of Nc1cccc2c1CN(C1CCC(=O)NC1=O)C2=O (configuration not stated) .
98
